Items are presented alongside their recorded Viable Cell Number (Mean ± SEM, n = 6).
test system: primary fetal rat neurons; assay: Cell survival of primary cortical neurons (cell counts); assay type: cell-based; conditions: 150 ppb selenium compound(s), 24 hours; Control 100 ± 1.57; mixture: 30 ppb of the element from each compound
Endpoint Label: Viable Cell Number (Mean ± SEM, n = 6)

[
  {
    "Molecule": "C[Se]C[C@H](NC(=O)CC[C@H](N)C(=O)O)C(=O)O",
    "Endpoint Label": "Viable Cell Number (Mean ± SEM, n = 6)",
    "Numeric Readout": 95.69
  },
  {
    "Molecule": "C[Se]C[C@H](N)C(=O)O",
    "Endpoint Label": "Viable Cell Number (Mean ± SEM, n = 6)",
    "Numeric Readout": 94.45
  },
  {
    "Molecule": "C[Se]CC[C@H](N)C(=O)O",
    "Endpoint Label": "Viable Cell Number (Mean ± SEM, n = 6)",
    "Numeric Readout": 90.59
  },
  {
    "Molecule": "C[Se]C[C@H]1O[C@@H](n2cnc3c(N)ncnc32)C(O)C1O (stereo in doubt)",
    "Endpoint Label": "Viable Cell Number (Mean ± SEM, n = 6)",
    "Numeric Readout": 101.1
  }
]

Source listed as patent US10201558B2.
